The reported measurements were obtained from PubChem BioAssay AID1288.

- System: human endothelial cells, TNFa-induced E-selectin, imaging
- assay.remarks: E-selectin induction blockers, endothelial cells – imaging, retest plus dose response, cell count, confirmation (AID 1288)
Active and inactive are the calls of the source. No rule for the calls is given here.
Use one of these outcomes when replying: 1 (active), -1 (inactive)

[ask] Write down the call the test reported for this compound. Item: CN(C)c1nc(C=C(C#N)C#N)c(Cl)n1-c1ccc(F)cc1
[reply] 1

[ask] Recorded test outcome, item O=C(c1ccc([N+](=O)[O-])cc1)N(Cc1ccc(Br)cc1)N1C(=O)CCCC1=O
[reply] 1

[ask] What is the recorded call for this compound in the test? COc1ccc(CS(=O)/C(Cl)=C(/Cl)C(=O)Nc2ccc(OC)nc2)cc1 (centres undefined)
[reply] 1

[ask] What classification did C=C1C(=O)C=C2CN(C(=O)c3ccccc3)[C@@](Cc3ccc(F)cc3)(C(=O)OC)[C@@H]12 end up with in this test?
[reply] -1

[ask] Status in this test for C=C1C(=O)[C@@]23[C@H](O)C[C@@H]4C(C)(C)CC[C@H](O)[C@@]4(C)[C@@H]2CC[C@@H]1[C@H]3O ?
[reply] 1
